- system-under-test: fusion protein PRF
- Sequence (chain, as listed by the source): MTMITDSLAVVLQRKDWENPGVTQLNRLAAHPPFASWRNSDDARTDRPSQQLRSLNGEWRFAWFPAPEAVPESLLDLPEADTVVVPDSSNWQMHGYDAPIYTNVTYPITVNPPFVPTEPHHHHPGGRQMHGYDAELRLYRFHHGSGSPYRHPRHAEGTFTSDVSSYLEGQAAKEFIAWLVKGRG
reported-property: relative cleavage efficiency

Note down relative cleavage efficiency recorded for OmpT protease variant OmpT D97F (protein) STETLSFTPDNINADISLGTLSGKTKERVYLAEEGGRKVSQLDWKFNNAAIIKGAINWDLMPQISIGAAGWTTLGSRGGNMVDQDWMDSSNPGTWTFESRHPDTQLNYANEFDLNIKGWLLNEPNYRLGLMAGYQESRYSFTARGGSYIYSSEEGFRDDIGSFPNGERAIGYKQRFKMPYIGLTGSYRYEDFELGGTFKYSGWVESSDNDEHYDPGKRITYRSKVKDQNYYSVAVNAGYYVTPNAKVYVEGAWNRVTNKKGNTSLYDHNNNTSDYSKNGAGIENYNFITTAGLKYTF < 3%
